// values below are reported IC50
target: SARM1 (50-724) (Homo sapiens); construct: Purified SARM1 (50-724) with a final concentration of 2 nM; experiment: SARM1 (50-724) enzymatic assay (NMN-activated NAD+ hydrolysis, LC-MS/MS readout); type: biochemical; details: purified SARM1 (50-724) 2 nM, 200 μM NMN activator, 100 μM NAD+ substrate, 1 h at room temperature, read-out: IC50 (SARM1 inhibitory activity)

Worked examples follow.
# molecule, observed
data = [
    ("Cc1cccc2c(CO)c(C(=O)N(C)C3CCCC3)[nH]c12 [Compound 39]", "≥ 1000 nM"),
    ("Cc1ccc2[nH]c(C(=O)N(C)c3c(Cl)cccc3Cl)c(CO)c2c1 [Compound 5]", "101 to 500 nM"),
    ("O=C(c1nc2cc(C(F)(F)F)cc(F)c2[nH]1)N(c1cccc(F)c1Cl)C1CCS(=O)(=O)CC1 [Compound 130]", "≤ 100 nM"),
]

The molecule listed as O=C(c1nc2cc(C(F)(F)F)ccc2[nH]1)N(CC(F)(F)CO)c1cc(F)cc(F)c1Cl [Compound 218] has a reported IC50 of ≤ 100 nM

The molecule listed as O=C(c1nc2cc(Cl)cc(F)c2[nH]1)N(c1cccc(F)c1Cl)C1CCS(=O)(=O)C1 (racemic) [Compound 191] has a reported IC50 of ≤ 100 nM

The molecule listed as O=C(c1nc2cc(Cl)cc(F)c2[nH]1)N(CC(F)(F)CO)c1ccc(F)c(F)c1Cl [Compound 233] has a reported IC50 of ≤ 100 nM

The molecule listed as Cc1nc(C(=O)N(C)C2CCCC2)[nH]c1C [Compound 59] has a reported IC50 of ≥ 1000 nM

The molecule listed as Cc1ccc2[nH]c(C(=O)N(C)C3CCNCC3)c(CNc3ccccn3)c2c1 [Compound 84] has a reported IC50 of ≥ 1000 nM

The molecule listed as Cc1ccc2[nH]c(C(=O)N(C)C3CCOCC3)c(CNc3ccccn3)c2c1 [Compound 90] has a reported IC50 of ≥ 1000 nM

The molecule listed as Cc1ccc2c(CO)c(C(=O)N(C)C3CCCC3)[nH]c2c1 [Compound 17] has a reported IC50 of ≥ 1000 nM

The molecule listed as Cc1ccc2[nH]c(C(=O)N(C)C3CCCC3)nc2c1C#N [Compound 97] has a reported IC50 of 101 to 500 nM

The molecule listed as COc1ccc(Cl)c(N(CC(F)(F)CO)C(=O)c2nc3cc(C(F)(F)F)ccc3[nH]2)n1 [Compound 207] has a reported IC50 of 101 to 500 nM

The molecule listed as COc1ccc2c(CO)c(C(=O)N(C)C3CCCC3)[nH]c2c1 [Compound 29] has a reported IC50 of ≥ 1000 nM

The molecule listed as Cc1ccc2[nH]c(C(=O)N(C)C3CCCC3)nc2c1C [Compound 92] has a reported IC50 of 101 to 500 nM

The molecule listed as Cc1ccc2[nH]c(C(=O)N(C)C3CCCC3)c(CNc3nc(C(N)=O)cs3)c2c1 [Compound 73] has a reported IC50 of 101 to 500 nM

----------
// values below are reported pIC50
molecular target: SARM1 (50-724) (Homo sapiens); construct: Purified SARM1 (50-724) with a final concentration of 2 nM; experiment: SARM1 (50-724) enzymatic assay (NMN-activated NAD+ hydrolysis, LC-MS/MS readout); settings: purified SARM1 (50-724) 2 nM, 200 μM NMN activator, 100 μM NAD+ substrate, 1 h at room temperature, read-out: IC50 (SARM1 inhibitory activity)
pIC50: −log10 of the molar value.

Worked examples follow.
# compound, system_name, pIC50
measured = [
    ("O=C(c1nc2cc(C3CC3)ccc2[nH]1)N(CC(F)(F)CO)c1ccc(F)c(F)c1Cl", "SARM1 (50-724) (Homo sapiens)", "≥ 7.00"),
    ("Cc1c(F)cccc1N(CCO)C(=O)c1nc2cc(C(F)(F)F)ccc2[nH]1", "SARM1 (50-724) (Homo sapiens)", "≥ 7.00"),
    ("O=C(c1nc2cc(C(F)(F)F)cc(F)c2[nH]1)N(c1cccc(F)c1Cl)C1CCS(=O)(=O)C1 (racemic)", "SARM1 (50-724) (Homo sapiens)", "≥ 7.00"),
    ("Cc1cccc(N(C)C(=O)c2[nH]c3ccc(C)cc3c2CO)c1", "SARM1 (50-724) (Homo sapiens)", "≤ 6.00"),
    ("Cc1ccc2[nH]c(C(=O)N(C)c3cc(F)cc(F)c3)c(CO)c2c1", "SARM1 (50-724) (Homo sapiens)", "≤ 6.00"),
    ("O=C(c1nc2cc(C(F)(F)F)ccc2[nH]1)N(CCN1CCOCC1)c1cccc(F)c1Cl", "SARM1 (50-724) (Homo sapiens)", "6.30 to 7.00"),
    ("Cc1ccc2[nH]c(C(=O)N(C)C3CCN(C(=O)OC(C)(C)C)CC3)c(CNc3ccccn3)c2c1", "SARM1 (50-724) (Homo sapiens)", "≤ 6.00"),
    ("Cc1c(Cl)cncc1N(CCO)C(=O)c1nc2c(Cl)c(Cl)ccc2[nH]1", "SARM1 (50-724) (Homo sapiens)", "6.00 to 6.30"),
]

The compound listed as `Cc1ccc2[nH]c(C(=O)N(CC3COC3)C3CCCC3)nc2c1` has a reported pIC50 of ≤ 6.00

The compound listed as `Cc1ccc2[nH]c(C(=O)N(C)c3ccc(C#N)cc3)c(CO)c2c1` has a reported pIC50 of ≤ 6.00

The compound listed as CN(C(=O)c1nc2c(C3CC(O)C3)cccc2[nH]1)C1CCCC1 (stereo not shown) has a reported pIC50 of ≤ 6.00

The compound listed as `CCOC(=O)C(F)(F)CN(C(=O)c1nc2cc(C3CC3)ccc2[nH]1)c1cccc(F)c1Cl` has a reported pIC50 of ≥ 7.00

The compound listed as `Cc1nsc(N(CC2(F)COC2)C(=O)c2nc3cc(C(F)(F)F)ccc3[nH]2)c1Cl` has a reported pIC50 of 6.30 to 7.00

The compound listed as `Cc1ccc2[nH]c(C(=O)N(C)c3ccccn3)c(CO)c2c1` has a reported pIC50 of ≤ 6.00

The compound listed as `CN(C(=O)c1nc2ccccc2[nH]1)C1CCCC1` has a reported pIC50 of ≤ 6.00

The compound listed as `Cc1ccc2[nH]c(C(=O)N(C)c3ccc(Cl)cc3)c(CO)c2c1` has a reported pIC50 of ≤ 6.00

The compound listed as `O=C(c1nc2cc(C(F)(F)F)ccc2[nH]1)N(CCO)c1nccc(Cl)c1Cl` has a reported pIC50 of ≥ 7.00

The compound listed as `Cc1ccc2[nH]c(C(=O)N(C)C3CCCC3)c(CC(N)=O)c2c1` has a reported pIC50 of 6.00 to 6.30

The compound listed as `Cc1ccc2[nH]c(C(=O)N(C)c3cccc(C(F)(F)F)c3)c(CO)c2c1` has a reported pIC50 of ≤ 6.00

The compound listed as `O=C(c1nc2cc(C(F)(F)F)ccc2[nH]1)N(CCN1CCCS1(=O)=O)c1cccc(Cl)c1Cl` has a reported pIC50 of ≥ 7.00

The compound listed as `CS(=O)(=O)NCCN(C(=O)c1nc2cc(C(F)(F)F)ccc2[nH]1)c1cccc(Cl)c1Cl` has a reported pIC50 of ≥ 7.00

----------
// values below are reported IC50
target: SARM1 (50-724) (Homo sapiens, UniProt Q6SZW1); construct: Purified SARM1 (50-724) with a final concentration of 2 nM; assay: SARM1 (50-724) enzymatic assay (NMN-activated NAD+ hydrolysis, LC-MS/MS readout); settings: purified SARM1 (50-724) 2 nM, 200 μM NMN activator, 100 μM NAD+ substrate, 1 h at room temperature, read-out: IC50 (SARM1 inhibitory activity)
Sequence (Q6SZW1 50-724): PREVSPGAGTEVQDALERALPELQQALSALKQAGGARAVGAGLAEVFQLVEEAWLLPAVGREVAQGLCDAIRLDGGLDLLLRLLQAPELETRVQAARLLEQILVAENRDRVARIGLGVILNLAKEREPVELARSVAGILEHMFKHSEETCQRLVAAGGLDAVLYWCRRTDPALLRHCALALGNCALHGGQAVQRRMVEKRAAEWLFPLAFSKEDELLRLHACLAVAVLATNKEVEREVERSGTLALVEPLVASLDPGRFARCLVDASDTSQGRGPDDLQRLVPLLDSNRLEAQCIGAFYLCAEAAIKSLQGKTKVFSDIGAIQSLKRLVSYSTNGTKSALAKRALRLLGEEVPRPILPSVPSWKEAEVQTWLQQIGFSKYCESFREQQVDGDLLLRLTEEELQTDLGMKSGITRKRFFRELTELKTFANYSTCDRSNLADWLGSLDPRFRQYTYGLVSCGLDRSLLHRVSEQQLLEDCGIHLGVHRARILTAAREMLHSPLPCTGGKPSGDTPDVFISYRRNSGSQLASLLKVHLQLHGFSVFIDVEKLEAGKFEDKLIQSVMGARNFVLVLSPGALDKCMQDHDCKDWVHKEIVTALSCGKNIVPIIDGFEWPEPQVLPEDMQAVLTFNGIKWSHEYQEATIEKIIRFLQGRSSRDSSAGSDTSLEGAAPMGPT

# compound, system_name, IC50
data = [
    ("Cc1ccc2[nH]c(C(=O)N(CCO)c3cccc(Cl)c3Cl)c(C#N)c2c1", "SARM1 (50-724) (Homo sapiens, UniProt Q6SZW1)", "≤ 100 nM"),
    ("O=C1CCCN1CCN(C(=O)c1nc2ccc(C(F)(F)F)cc2[nH]1)c1cccc(Cl)c1Cl", "SARM1 (50-724) (Homo sapiens, UniProt Q6SZW1)", "501 to 1000 nM"),
    ("CN(C(=O)c1[nH]c2cc(Cl)cc(Cl)c2c1CO)C1CCCC1", "SARM1 (50-724) (Homo sapiens, UniProt Q6SZW1)", "≥ 1000 nM"),
    ("CC(C)(O)CN(C(=O)c1nc2cc(C(F)(F)F)ccc2[nH]1)c1cccc(Cl)c1Cl", "SARM1 (50-724) (Homo sapiens, UniProt Q6SZW1)", "≤ 100 nM"),
    ("Cc1ccc2[nH]c(C(=O)NC3CCCC3)c(CO)c2c1", "SARM1 (50-724) (Homo sapiens, UniProt Q6SZW1)", "≥ 1000 nM"),
]

The compound listed as `Cc1c(F)cncc1N(CCO)C(=O)c1nc2cc(C(F)(F)F)ccc2[nH]1` has a reported IC50 of 101 to 500 nM

The compound listed as O=C(c1nc2cc(C(F)(F)F)ccc2[nH]1)N(c1cccc(Cl)c1Cl)C1CC(O)C1 (centres unmarked) has a reported IC50 of ≤ 100 nM

The compound listed as `O=C(c1nc2cc(C(F)(F)F)ccc2[nH]1)N(CCO)c1c(Cl)cccc1Cl` has a reported IC50 of 101 to 500 nM
